- tested-system: Fc-hROR2 protein (Homo sapiens (Human)., UniProt Q01974)
- Sequence (Q01974 34-394): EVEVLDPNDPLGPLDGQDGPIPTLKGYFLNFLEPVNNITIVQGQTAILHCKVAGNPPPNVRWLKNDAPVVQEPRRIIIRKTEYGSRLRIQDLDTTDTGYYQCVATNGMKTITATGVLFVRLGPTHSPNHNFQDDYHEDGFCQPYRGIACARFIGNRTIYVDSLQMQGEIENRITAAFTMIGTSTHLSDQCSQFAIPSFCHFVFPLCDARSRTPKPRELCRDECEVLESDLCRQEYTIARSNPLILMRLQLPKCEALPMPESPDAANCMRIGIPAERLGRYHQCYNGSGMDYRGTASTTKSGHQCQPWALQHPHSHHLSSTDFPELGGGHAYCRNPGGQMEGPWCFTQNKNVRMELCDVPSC
- assay-name: SPR
endpoint: Kd (nM)
The response must be a number in nM with no trailing unit.

- binder: "chimeric rabbit/human anti-human ROR2 Fab ERR2-302 (Fab, V domains shown) VH: QKQLVESGGGLVKPGGSLTLTCTVSGFSLSSYAIGWVRQAPGNGLEWIGIINSYGSTYYASWAKSRSTITRNTNLNTVTLKMTSLTAADTATYFCARSPYGYVSAWGYHRLDLWGQGTLVTISS VL: SYELTQLPSVSVSLGQTARITCGGASIGSKVVHWYQQKPGLAPGLLIYDDDERPSGVPDRFSGSNSGDTATLTISGAQAGDEAEYYCQLWDGSDVVFGGGTQLTVT"
  Kd [nM]: 52.5
- binder: "chimeric rabbit/human anti-human ROR2 Fab ERR2-TOP35 (Fab, V domains shown) VH: QSVKESEGGLFKPMDTLTLTCTVSGFSLNTYGVSWVRQAPGNGLEWIGAVGSSGATNYASWAKSRSTITRNTNENTVTLKMTSLTAADTATYFCARDGYYSSGWGPYFSIWGPGTLVTVSS VL: SFVLTQPASVQVNLGQTVSLTCTAETLRSSYASWYQQKPGQAPVLLIYRDTSRPSGVPDRFSGSSSGNTATLTISGAQAGDEADYYCATSDGSGSRYYVFGGGTQLTVT"
  Kd [nM]: 43.3
- binder: "chimeric rabbit/human anti-human ROR2 Fab XBR2-433 (Fab, V domains shown) VH: QSVKESEGGLFKPTDTLTLTCTVSGFSLSTYGVSWVRQAPGNGLEWIGAIGSSGSANYASWAKDRSTITRNTNLNTVTLKMTSLTAADTATYFCARDGYYSSGWGPYFNIWGPGTLVTISS VL: SFVLTQPASVQVNLGQTVSLTCTADTLSRSYASWYQQKPGQAPVLLIYRDTSRPSGVPDRFSGSSSGNTATLTISGAQAGDEADYYCATSGGSGSNPQYVFGGGTQLTVT"
  Kd [nM]: 2280

Here's the next entry for you.
Q: // Kd lookup, key: chimeric rabbit/human anti-human ROR2 Fab XBR2-TOP72 (Fab, V domains shown) VH: QEQLEESGGRLVTPGTPLTLTCTVSGIDLSSNAMSWVRQAPGKGLEYVGFINGGGGVHYASWARGRFTISKTSTTVDLKITSPTTEDTATYFCARAGTTYYTSFNLWGPGTLVTISS VL: QFVLTQSPSASAALGSSAKLTCTLSSAHKTYTIAWYQQQQGEAPRLLMMLRTDGSYTKGTGVPDRFSGSSSGADRYLIISSVQADDAAGYYCGADYSGGYVFGGGTQLTVT
Ans: 4150
